- Test system: E. coli (ATCC 25922)
- run_description: microbe, parasite or virus in culture
- Format: cell-based, Escherichia coli
- experimental_parameters: ATCC 25922, 24 h
Non-standard residues stand in square brackets, D forms with d. Residues, ends and D or L forms follow the SMILES beside them. Dip = N[C@H](C(=O)O)C(c1ccccc1)c1ccccc1
reported_endpoint: MIC (µM)
I only need the number, in µM, no unit after it.

• N=C(N)NCCC[C@@H]1NC(=O)[C@H](Cc2c[nH]c3ccccc23)NC(=O)[C@H](CCCNC(=N)N)NC(=O)[C@H](C(c2ccccc2)c2ccccc2)NC(=O)[C@H](CCCNC(=N)N)NC(=O)[C@H](C(c2ccccc2)c2ccccc2)NC(=O)[C@H](CCCNC(=N)N)NC(=O)[C@H](C(c2ccccc2)c2ccccc2)NC(=O)[C@H](CCCNC(=N)N)NC(=O)[C@H](Cc2c[nH]c3ccccc23)NC1=O [[(DipR)3(WR)2]] (cyclo([Dip]R[Dip]R[Dip]RWRWR)) = 12.5

Okay, now this compound:
Would you mind telling me what MIC value was observed for N=C(N)NCCC[C@@H]1NC(=O)[C@H](C(c2ccccc2)c2ccccc2)NC(=O)[C@H](CCCNC(=N)N)NC(=O)[C@H](C(c2ccccc2)c2ccccc2)NC(=O)[C@H](CCCNC(=N)N)NC(=O)[C@H](C(c2ccccc2)c2ccccc2)NC(=O)[C@H](CCCNC(=N)N)NC(=O)[C@H](C(c2ccccc2)c2ccccc2)NC(=O)[C@H](CCCNC(=N)N)NC(=O)[C@H](C(c2ccccc2)c2ccccc2)NC1=O [[DipR]5] (cyclo([Dip]R[Dip]R[Dip]R[Dip]R[Dip]R)) ? 12.5
